The reader will find reported Signal/Noise values listed item by item below.
testedTarget: T1, Recombinant Human DLL4 (human, UniProt Q9NR61 27-524)
T1 construct: Bought recombinant human DLL4 (R&D Systems Cat#1506-D4/CF), coated on the plate; also called delta-like protein 4; rHuman DLL4
test: ECL (MSD) 96-well plate assay, DLL4 coated at 30 ug/mL, Fab 0.1 uM; signal over blank
propertyMeasured: Signal/Noise

1) Fab VH5-51_IGHD5-18*01>3_IGHJ4*01 G104K & V3-4_IGLJ1*01 (Fab, V domains shown, Fab; VH-CH1 (His6/Flag, Plasmid A) and VL-lambda CL (Plasmid E)) VH: EVQLVQSGAEVKKPGESLKISCKGSGYSFTSYWIGWVRQMPGKGLEWMGIIYPGDSDTRYSPSFQGQVTISADKSISTAYLQWSSLKASDTAMYYCARRGYSYKYDYFDYWGQGTLVTVSS VL: QTVVTQEPSFSVSPGGTVTLTCGLSSGSVSTSYYPSWYQQTPGQAPRTLIYSTNTRSSGVPDRFSGSILGNKAALTITGAQADDESDYYCVLYMGSGISYVFGTGTKVTVL: 17.6
2) Fab VH5-51_IGHD5-18*01>3_IGHJ4*01 G104A & V3-4_IGLJ1*01 (Fab, V domains shown, Fab; VH-CH1 (His6/Flag, Plasmid A) and VL-lambda CL (Plasmid E)) VH: EVQLVQSGAEVKKPGESLKISCKGSGYSFTSYWIGWVRQMPGKGLEWMGIIYPGDSDTRYSPSFQGQVTISADKSISTAYLQWSSLKASDTAMYYCARRGYSYAYDYFDYWGQGTLVTVSS VL: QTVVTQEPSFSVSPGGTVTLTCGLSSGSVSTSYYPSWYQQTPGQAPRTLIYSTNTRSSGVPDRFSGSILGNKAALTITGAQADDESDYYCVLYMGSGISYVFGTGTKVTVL: 6.7
3) Fab VH5-51_IGHD5-18*01>3_IGHJ4*01 G104S & V3-4_IGLJ1*01 (Fab, V domains shown, Fab; VH-CH1 (His6/Flag, Plasmid A) and VL-lambda CL (Plasmid E)) VH: EVQLVQSGAEVKKPGESLKISCKGSGYSFTSYWIGWVRQMPGKGLEWMGIIYPGDSDTRYSPSFQGQVTISADKSISTAYLQWSSLKASDTAMYYCARRGYSYSYDYFDYWGQGTLVTVSS VL: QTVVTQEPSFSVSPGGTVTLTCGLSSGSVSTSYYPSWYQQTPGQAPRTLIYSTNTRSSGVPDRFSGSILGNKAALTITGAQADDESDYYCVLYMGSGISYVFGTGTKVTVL: 47.8
4) Fab VH5-51_IGHD5-18*01>3_IGHJ4*01 G104D & V3-4_IGLJ1*01 (Fab, V domains shown, Fab; VH-CH1 (His6/Flag, Plasmid A) and VL-lambda CL (Plasmid E)) VH: EVQLVQSGAEVKKPGESLKISCKGSGYSFTSYWIGWVRQMPGKGLEWMGIIYPGDSDTRYSPSFQGQVTISADKSISTAYLQWSSLKASDTAMYYCARRGYSYDYDYFDYWGQGTLVTVSS VL: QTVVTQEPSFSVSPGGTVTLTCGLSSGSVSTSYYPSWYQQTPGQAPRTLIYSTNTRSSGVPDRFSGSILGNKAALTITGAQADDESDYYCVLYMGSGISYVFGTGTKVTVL: 42.5

Numbers sourced from patent US20120316071A1.
